Record form. Attribute: inhibition. Fill in for each entry.
biological target: Substance-P receptor (Homo sapiens) (UniProt P25103); assay: Displacement of [125I]-BH-SP from NK1R (unknown origin) transfected in CHO cells at 10 uM by gamma counting analysis; assay type: cell-based
Sequence (P25103 whole entry): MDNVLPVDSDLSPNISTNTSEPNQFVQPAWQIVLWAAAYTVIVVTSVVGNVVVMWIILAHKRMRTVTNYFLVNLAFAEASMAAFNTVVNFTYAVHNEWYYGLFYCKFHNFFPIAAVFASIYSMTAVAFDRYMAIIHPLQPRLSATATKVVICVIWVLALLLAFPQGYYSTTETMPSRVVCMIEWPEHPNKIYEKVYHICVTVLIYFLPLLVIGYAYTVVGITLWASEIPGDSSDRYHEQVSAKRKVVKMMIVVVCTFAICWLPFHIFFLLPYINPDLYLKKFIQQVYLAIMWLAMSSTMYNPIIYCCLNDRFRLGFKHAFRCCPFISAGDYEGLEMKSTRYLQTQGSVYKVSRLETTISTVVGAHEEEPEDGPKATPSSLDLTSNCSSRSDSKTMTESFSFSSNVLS
Residues, ends and D or L forms follow the SMILES beside them.

Qu. Consider the compound CSCC[C@H](NC(=O)[C@H](CC(C)C)NC(=O)CNC(=O)[C@H](Cc1ccccc1)N(C)C(=O)[C@H](Cc1ccccc1)NC(=O)[C@@H](NC(=O)[C@H](CC(=O)O)NC(=O)[C@H](Cc1cnc[nH]1)NC(=O)[C@H](CCSC)NC(=O)[C@@H](N)CC(=O)O)[C@@H](C)O)C(N)=O (HELM PEPTIDE1{D.M.H.D.T.F.[meF].G.L.M.[am]}$$$$V2.0) . State its measured inhibition.
Ans. < 10%

Qu. For the compound CSCC[C@H](NC(=O)[C@H](CC(C)C)NC(=O)CNC(=O)[C@H](Cc1ccccc1)N(C)C(=O)[C@H](Cc1ccccc1)NC(=O)[C@@H]1CCCN1C(=O)[C@H](CC(=O)O)NC(=O)[C@H](Cc1cnc[nH]1)NC(=O)[C@H](CCSC)NC(=O)[C@@H](N)CC(=O)O)C(N)=O (HELM PEPTIDE1{D.M.H.D.P.F.[meF].G.L.M.[am]}$$$$V2.0) , give its measured inhibition value.
Ans. < 10%

----------
biological target: Neuromedin-K receptor (Homo sapiens, UniProt P29371); experiment: Agonist activity at NK3R (unknown origin) transfected in CHO cells assessed as calcium influx […]
Residues, ends and D or L forms follow the SMILES beside them.
Please respond with reported EC50 for every item in the list.
Please state the number and follow it with the unit.

Qu. Dear colleague, please send me the reported EC50 for CC[C@H](C)[C@H](NC(=O)[C@H](CC(=O)O)NC(=O)[C@H](Cc1cnc[nH]1)NC(=O)[C@H](CCSC)NC(=O)[C@@H](N)CC(=O)O)C(=O)N[C@@H](Cc1ccccc1)C(=O)N(C)[C@@H](Cc1ccccc1)C(=O)NCC(=O)N[C@@H](CC(C)C)C(=O)N[C@@H](CCSC)C(N)=O (HELM PEPTIDE1{D.M.H.D.I.F.[meF].G.L.M.[am]}$$$$V2.0) when you can.
Ans. 0.06 nM

Qu. For the molecule CSCC[C@H](NC(=O)[C@H](CC(C)C)NC(=O)CNC(=O)[C@H](Cc1ccccc1)N(C)C(=O)[C@H](Cc1ccccc1)NC(=O)[C@H](CCSC)NC(=O)[C@H](CC(=O)O)NC(=O)[C@H](Cc1cnc[nH]1)NC(=O)[C@H](CCSC)NC(=O)[C@@H](N)CC(=O)O)C(N)=O (HELM PEPTIDE1{D.M.H.D.M.F.[meF].G.L.M.[am]}$$$$V2.0) , report EC50.
Ans. 0.032 nM

Qu. // Input: CSCC[C@H](NC(=O)[C@H](CC(C)C)NC(=O)CNC(=O)[C@H](Cc1ccccc1)N(C)C(=O)[C@H](Cc1ccccc1)NC(=O)[C@H](CC(=O)O)NC(=O)[C@H](CC(=O)O)NC(=O)[C@H](CCCCN)NC(=O)[C@H](CO)NC(=O)[C@@H]1CCCN1C(=O)[C@@H]1CCC(=O)N1)C(N)=O (HELM PEPTIDE1{[Glp].P.S.K.D.D.F.[meF].G.L.M.[am]}$$$$V2.0) . Output its EC50 only.
Ans. 0.078 nM

----------
target: Substance-P receptor (Homo sapiens); assay: Displacement of [125I]-BH-SP from NK1R (unknown origin) transfected in CHO cells at 10 uM by gamma counting analysis; assay type: cell-based
Residues, ends and D or L forms follow the SMILES beside them.
outcome measure: inhibition

Qu. Supply inhibition value. Item: CSCC[C@H](NC(=O)[C@H](CC(C)C)NC(=O)CNC(=O)[C@H](Cc1ccccc1)N(C)C(=O)[C@H](Cc1ccccc1)NC(=O)[C@H](CO)NC(=O)[C@H](CC(=O)O)NC(=O)[C@H](Cc1cnc[nH]1)NC(=O)[C@H](CCSC)NC(=O)[C@@H](N)CC(=O)O)C(N)=O (HELM PEPTIDE1{D.M.H.D.S.F.[meF].G.L.M.[am]}$$$$V2.0)
Ans. < 10%

Qu. Supply recorded inhibition for CSCC[C@H](NC(=O)[C@H](CC(C)C)NC(=O)CNC(=O)[C@H](Cc1ccccc1)N(C)C(=O)[C@H](Cc1ccccc1)NC(=O)[C@H](CCCCN)NC(=O)[C@H](CC(=O)O)NC(=O)[C@H](Cc1cnc[nH]1)NC(=O)[C@H](CCSC)NC(=O)[C@@H](N)CC(=O)O)C(N)=O (HELM PEPTIDE1{D.M.H.D.K.F.[meF].G.L.M.[am]}$$$$V2.0) here.
Ans. 40%

Qu. Complete the entry with inhibition for CSCC[C@H](NC(=O)[C@H](CC(C)C)NC(=O)CNC(=O)[C@H](Cc1ccccc1)N(C)C(=O)[C@H](Cc1ccccc1)NC(=O)[C@H](CC(C)C)NC(=O)[C@H](CC(=O)O)NC(=O)[C@H](Cc1cnc[nH]1)NC(=O)[C@H](CCSC)NC(=O)[C@@H](N)CC(=O)O)C(N)=O (HELM PEPTIDE1{D.M.H.D.L.F.[meF].G.L.M.[am]}$$$$V2.0)
Ans. < 10%

----------
target: Neuromedin-K receptor (Homo sapiens); assay: Displacement of ([125I]-His3, MePhe7)-NKB from NK3R (unknown origin) transfected in CHO cells by gamma counting analysis; format: cell-based
outcome measure: IC50 (nM)
Your answer is read as nM, so omit the unit and give the number.

Qu. Please give the documented IC50 of `H-DVPKSDDFVGLM-NH2`
Ans. 89

Qu. Determine its reported IC50: H-KPRPDQFYGLM-NH2 [BUFOKININ]
Ans. 2990

Qu. Give reported IC50 value for H-DTGDKFYGLM-NH2 [SIALOKININ II]
Ans. 1930

----------
Molecular target: Neuromedin-K receptor (Homo sapiens)
Sequence (P29371 whole entry): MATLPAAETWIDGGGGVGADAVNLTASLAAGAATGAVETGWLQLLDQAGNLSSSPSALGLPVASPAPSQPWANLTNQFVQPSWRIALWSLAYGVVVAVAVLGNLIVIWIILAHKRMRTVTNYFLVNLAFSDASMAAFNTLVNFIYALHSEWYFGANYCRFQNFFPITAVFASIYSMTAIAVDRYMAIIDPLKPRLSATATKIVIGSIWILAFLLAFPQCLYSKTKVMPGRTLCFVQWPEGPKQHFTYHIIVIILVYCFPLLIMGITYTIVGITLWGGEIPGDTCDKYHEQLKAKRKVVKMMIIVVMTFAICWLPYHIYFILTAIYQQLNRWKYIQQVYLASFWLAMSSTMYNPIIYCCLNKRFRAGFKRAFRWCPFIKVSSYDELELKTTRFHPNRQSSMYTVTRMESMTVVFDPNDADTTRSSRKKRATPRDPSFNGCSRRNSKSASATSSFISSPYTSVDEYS
Assay: Displacement of ([125I]-His3, MePhe7)-NKB from NK3R (unknown origin) transfected in CHO cells by gamma counting analysis
Residues, ends and D or L forms follow the SMILES beside them.
Exercise: state measured pIC50 for each of the compounds provided.
// pIC50: -log10(molar conc.)

Qu. Hello, please tell me recorded pIC50 for this one: CC[C@H](C)[C@H](NC(=O)[C@H](Cc1ccccc1)NC(=O)[C@H](C)NC(=O)[C@H](CC(=O)O)NC(=O)[C@H](CCCCN)NC(=O)[C@H](CO)NC(=O)[C@@H]1CCCN1C(=O)[C@@H]1CCC(=O)N1)C(=O)NCC(=O)N[C@@H](CC(C)C)C(=O)N[C@@H](CCSC)C(N)=O [ELEDOISIN] (HELM PEPTIDE1{[Glp].P.S.K.D.A.F.I.G.L.M.[am]}$$$$V2.0)
Ans. 7.02

Qu. Tell me measured pIC50 for CC[C@H](C)[C@H](NC(=O)[C@H](CC(=O)O)NC(=O)[C@H](Cc1cnc[nH]1)NC(=O)[C@H](CCSC)NC(=O)[C@@H](N)CC(=O)O)C(=O)N[C@@H](Cc1ccccc1)C(=O)N(C)[C@@H](Cc1ccccc1)C(=O)NCC(=O)N[C@@H](CC(C)C)C(=O)N[C@@H](CCSC)C(N)=O (HELM PEPTIDE1{D.M.H.D.I.F.[meF].G.L.M.[am]}$$$$V2.0) please.
Ans. 8.40

Qu. Give the measured pIC50 for CSCC[C@H](NC(=O)[C@H](CC(C)C)NC(=O)CNC(=O)[C@H](Cc1ccccc1)N(C)C(=O)[C@H](Cc1ccccc1)NC(=O)[C@H](CC(=O)O)NC(=O)[C@H](CC(N)=O)NC(=O)[C@@H]1CCCN1C(=O)[C@H](CC(=O)O)NC(=O)[C@H](C)NC(=O)[C@@H]1CCC(=O)N1)C(N)=O (HELM PEPTIDE1{[Glp].A.D.P.N.D.F.[meF].G.L.M.[am]}$$$$V2.0)
Ans. 7.27
